Biological target: OCT2 (SLC22A2) (Homo sapiens)
Sequence (O15244 whole entry): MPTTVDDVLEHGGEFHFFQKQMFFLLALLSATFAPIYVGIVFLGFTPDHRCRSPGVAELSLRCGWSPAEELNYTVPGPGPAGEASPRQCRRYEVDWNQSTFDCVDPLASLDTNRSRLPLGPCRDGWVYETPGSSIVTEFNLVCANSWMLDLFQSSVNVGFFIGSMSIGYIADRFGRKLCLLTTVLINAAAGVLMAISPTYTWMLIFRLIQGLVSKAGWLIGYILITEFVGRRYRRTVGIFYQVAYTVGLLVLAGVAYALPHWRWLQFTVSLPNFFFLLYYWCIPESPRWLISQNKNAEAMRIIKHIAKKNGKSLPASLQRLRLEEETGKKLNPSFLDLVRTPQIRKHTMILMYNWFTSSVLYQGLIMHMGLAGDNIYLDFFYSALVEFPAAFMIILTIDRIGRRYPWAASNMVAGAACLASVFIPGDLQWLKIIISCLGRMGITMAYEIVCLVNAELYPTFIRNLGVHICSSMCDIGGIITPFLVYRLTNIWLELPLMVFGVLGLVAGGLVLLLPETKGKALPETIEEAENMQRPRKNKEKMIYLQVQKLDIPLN
Experiment: Cellular uptake in human HEK293 cells assessed as human OCT2-mediated drug transport at 2.5 uM after 4 mins by LC-MS/MS analysis relative to passive uptake
Format: ADME, cell-based
Conditions: HEK293 cells expressing human OCT2, read-out: FC
# note: boundary value 2 maps to f; uptake ratio at 4 min, 2.5 µM below it maps to t

Study these solved cases before continuing.
{"Compound": "CC[N+](C)(CC)CCOC(=O)C(O)(c1ccccc1)C1CCCCC1 (stereo not given)", "Assigned Label": "f"}
{"Compound": "O=C(NCCNCC(O)COc1ccc(O)cc1)N1CCOCC1 (stereo not given)", "Assigned Label": "t"}

Ask: Here's an entry: C[N+]1(C)CCC(Oc2ccccc2-c2cc(C(N)=O)c(NC(N)=O)s2)C1 (racemic) . Is its uptake ratio at 4 min, 2.5 µM below 2?
Result: f

Ask: Here's an entry: N#Cc1ccc(OC2CCNC2)c(-c2cc(C(N)=O)c(NC(N)=O)s2)c1 (racemic) . Is its uptake ratio at 4 min, 2.5 µM below 2?
Result: t
